- ASSAY_DETAILS: Guest molecule concentration after incubation in initial medium without polymer (Comparative Example 1)
- Type: physicochemical
- MEASUREMENT_CONTEXT: 3 h; 37° C.; pH 6.8 phosphate buffer
TEST_READOUT: Concentration of guest molecule measured after different incubated time (ng/mL)

- SUBSTANCE_SMILES: "COc1cc(/C=C/C(=O)CC(=O)/C=C/c2ccc(O)c(OC)c2)ccc1O"
  DATA_VALUE: 9400
- SUBSTANCE_SMILES: "O=C(O)[C@H]1O[C@@H](Oc2cc3oc(-c4ccc(O)cc4)cc(=O)c3c(O)c2O)[C@H](O)[C@@H](O)[C@@H]1O"
  DATA_VALUE: 41700

A: CC1(C)CCC(CN2CCN(c3ccc(C(=O)NS(=O)(=O)c4ccc(NCC5CCOCC5)c([N+](=O)[O-])c4)c(Oc4cnc5[nH]ccc5c4)c3)CC2)=C(c2ccc(Cl)cc2)C1
B: O=C1C[C@@H](c2ccc(O)cc2)Oc2cc(O)cc(O)c21
Looking at recorded values for Concentration of guest molecule measured after different incubated time, does A or B come in lower? Answer format: the label of the selected item.
A

====

- ASSAY_DETAILS: Guest molecule concentration after incubation in initial medium without polymer (Comparative Example 1)
- Type: physicochemical
- MEASUREMENT_CONTEXT: 0.5 h; 37° C.; pH 6.8 phosphate buffer
Structures can show the parent of a compound that is named as a salt.
TEST_READOUT: Concentration of guest molecule measured after different incubated time (ng/mL)

Sample answers from the record:
- COMPOUND: "CC1=C(/C=C/C(C)=C/C=C/C(C)=C/CO)C(C)(C)CCC1"
  DATA_VALUE: 57200
- COMPOUND: "CC1=C[C@H](O)CC(C)(C)[C@H]1/C=C/C(C)=C/C=C/C(C)=C/C=C/C=C(C)/C=C/C=C(C)/C=C/C1=C(C)C[C@@H](O)CC1(C)C"
  DATA_VALUE: 0
- COMPOUND: "Cc1c(C)c2c(c(C)c1O)CC[C@@](C)(CCC[C@H](C)CCC[C@H](C)CCCC(C)C)O2"
  DATA_VALUE: 20900
- COMPOUND: "CCCNS(=O)(=O)Nc1ncnc(OCCOc2ncc(Br)cn2)c1-c1ccc(Br)cc1"
  DATA_VALUE: 35000

A: COc1cc2nccc(Oc3ccc(NC(=O)NC4CC4)c(Cl)c3)c2cc1C(N)=O
B: CC(=O)c1c(C)c2cnc(Nc3ccc(N4CCNCC4)cn3)nc2n(C2CCCC2)c1=O
Looking at recorded values for Concentration of guest molecule measured after different incubated time, does A or B come in lower? Answer format: the label of the selected item.
A
(A: 7600 ng/mL, B: 140400 ng/mL)

a: O=C1C[C@@H](c2ccc(O)cc2)Oc2cc(O)cc(O)c21
b: O=C1[C@@H]2[C@H]3CC[C@H](C3)[C@@H]2C(=O)N1C[C@@H]1CCCC[C@H]1CN1CCN(c2nsc3ccccc23)CC1 [Lurasidone hydrochloride]
c: COc1cc(/C=C/C(=O)CC(=O)/C=C/c2ccc(O)c(OC)c2)ccc1O
d: COc1ccc(-n2nc(C(N)=O)c3c2C(=O)N(c2ccc(N4CCCCC4=O)cc2)CC3)cc1
e: CC1(C)CCC(CN2CCN(c3ccc(C(=O)NS(=O)(=O)c4ccc(NCC5CCOCC5)c([N+](=O)[O-])c4)c(Oc4cnc5[nH]ccc5c4)c3)CC2)=C(c2ccc(Cl)cc2)C1
Arrange the 5 entries by Concentration of guest molecule measured after different incubated time so the values rise. Answer format: list of labels, ordered as asked.
c, b, e, d, a

Entry source: patent US20250339399A1
